These entries and their values trace back to a melting point compilation (Tetko et al.; mined from patent text by program, amines drawn as free bases though some values may be those of a salt).

Recorded melting point by entry

COc1cc([N+](=O)[O-])c2nccc(C)c2c1OCCCCCCCCc1ccccc1 :: 39.5 to 41 °C

Problem: Any idea what melting point was measured for CCOC(=O)c1cnc(SC)nc1NC ?
Solution: 91 to 93 °C

Problem: Try the compound COc1ccc(C(OCC2OC(n3cnc4c(N)nc(F)nc43)CC2O)(c2ccccc2)c2ccc(OC)cc2)cc1 (stereo unspecified)
Solution: 239 to 243 °C

Problem: Can you handle Cc1nc2c(N)nc3ccccc3c2n1CCOCC#Cc1ccccc1 next?
Solution: 143 °C

Problem: Now consider CC(=O)Oc1ccc(C(=O)c2nc3ccc(OC(C)=O)cc3s2)cc1 and answer again.
Solution: 183 °C

Problem: Moving on to N#CC1=CCOc2ccc(F)cc21
Solution: 114 to 115 °C

Problem: // same read-out, input: N#CCC(=O)NCCCNC(=O)CC#N
Solution: 146 °C

Problem: For Cn1c(=O)n(Cc2ccccc2)c(=O)c2cc(I)ccc21 then?
Solution: 149 to 150 °C

Problem: Repeat with CCCCCCCCCCCCCCCCC1=C(c2cn(C)c3ccccc23)C(=O)NC1=O
Solution: 112 to 114 °C

Problem: Likewise for COc1ccc(Oc2cccc3ncnc(NC(C)=O)c23)cc1 ?
Solution: 174 to 175 °C

Problem: // same read-out, input: CCCOc1ccc(-c2scc(-c3ccccc3Cl)c2CC(=O)N=C(N)N)cc1
Solution: 98 to 99 °C

Problem: Consider next the compound CN1CCN(C(=O)c2ccc(-c3cnc4c(c3)N(Cc3cc(F)ccc3F)CC(C)(C)N4)cc2)CC1 in the same way.
Solution: 191 to 192 °C

Problem: Please give the result for CCN1C(=O)Cc2cc(C(C)=O)ccc21 too.
Solution: 141 to 145 °C

Problem: Request: CCOC(=O)CCCNC1N=C(c2ccccc2Cl)c2c(cn(C)c2C)N(C)C1=O (stereo unspecified)
Solution: 105 to 107 °C

Problem: How about this compound: COC(=O)C(=C(/C)c1cc(OC)cc(OC)c1)/C(=C\c1cc(OC)cc(OC)c1)C(=O)O
Solution: 137 to 140 °C

Problem: And what about the compound CCOc1ncnc(OC)c1NC(N)=S ?
Solution: 186 to 187 °C

---

Readout kind: melting point

Problem: Would you kindly share the measured melting point for Cn1c(=O)c(C(=O)NC2CCCCC2)c(Cl)c2cc(O)ccc21 ?
Solution: 186 °C

Problem: Then this molecule: CN(C)c1ccc(NC(=O)N(CCC2=CCCCC2)C[C@H]2CC[C@H](CN(CCC3=CCCCC3)C(=O)Nc3ccc(N(C)C)cc3)CC2)cc1
Solution: 152 to 155 °C

Problem: Queued: CO/C(=C\C=C\c1cc2cc(Cl)c(Cl)cc2[nH]1)C(=O)NC1CC(C)(C)N(C)C(C)(C)C1
Solution: 212 °C

Problem: Record: CCCOc1ccc(S(=O)(=O)NCCc2c[nH]cn2)cc1-c1nc2cc(N)c([N+](=O)[O-])cc2c(=O)[nH]1
Solution: 169 to 172 °C

Problem: Likewise for CCOC(=O)/C(=N\O[C@H]1CCC[C@@H](C)C1)c1csc(N)n1 (relative stereo) ?
Solution: 91 to 93 °C

Problem: Entry CCN(C)C(=O)c1cc(-c2ccccc2)oc1-c1ccc(OC)c(OC)c1 please
Solution: 74 °C

Problem: Follow-up item: COC(=O)c1c(OC)nc2ccc(Cl)cc2c1-c1ccccc1Cl
Solution: 151 to 152 °C

Problem: Another molecule to look at: O=C(NCCCCC1CCSS1)n1cc(F)c(=O)[nH]c1=O (centres undefined)
Solution: 126 °C

---

The following compounds are listed with their measured melting point values.

S=C(NCCC1=CCCCC1)Nc1nc2ccccc2[nH]1 :: 178 to 180 °C
CC12CCC(O)CC1=CCC1C2CCC2(C)C(n3cnc4ccccc43)=CCC12 (stereo not given) :: 189 to 190 °C

Problem: What does the data say about its melting point? Entry: C[C@@H]1CCC[C@H](C)N1CCN1CCN(CCCN2CCCCC2)C1=C(C#N)C#N
Solution: 106 to 108 °C

Problem: Field entry: CNc1c(N)c(C)nn1C
Solution: 87 °C

Problem: Item: CCCOc1ccc(/C=C/C(=O)OC(C)(C)C)cc1-c1nc2c(CCC)nn(C)c2c(=O)[nH]1
Solution: 167 to 168 °C

Problem: // next record Clc1ccc2c(c1)Cn1cccc1C(C1CCN(CCc3ccccc3)CC1)O2 (stereo not given)
Solution: 145 to 147 °C

Problem: Further, for O=C(NCc1ccco1)c1cc2ccnc(Cl)c2[nH]1 ?
Solution: 205 to 209 °C

Problem: Same read-out for CCCCOc1nc(N)c2[nH]c(=O)n(CCN(C)Cc3cccc(CC(=O)O)c3)c2n1 ?
Solution: 164 to 166 °C

Problem: Cool, now Cc1ccc(S(=O)(=O)OC[C@H]2COc3ccc([N+](=O)[O-])c(CC(=O)O)c3O2)cc1
Solution: 158 to 159 °C

Problem: And the next one, CCC(=O)N1N=C(c2ccc(N)cc2)c2cc(Br)ccc2CC1C (stereo not given) ?
Solution: 99 to 102 °C

---

Readout kind: melting point

Problem: # lookup: melting point of CCC1CCN(C(=O)C(Cc2c[nH]cn2)NC(=O)C2CCC(=O)N2)C1C(N)=O (racemic)
Solution: 156 to 160 °C

Problem: Another molecule: C#CCOc1ccc(CCNC(=O)[C@@H](O)c2ccccc2)cc1OC
Solution: 81 to 83 °C

Problem: Record: COc1ccc2c(c1)S(=O)(=O)NC(C)N2 (stereo not given)
Solution: 208 to 218 °C

Problem: Field entry: CNC(=O)c1cc2c(Oc3ccc(C(F)(F)F)cc3)cnc(Cl)c2s1
Solution: 178 to 179 °C

Problem: Let us now turn to COC(=O)C1=C(C)NC(C)=C(C(=O)OC)C1C1CCC(C(=O)O)C1 (stereo not given)
Solution: 177 to 179 °C

Problem: And the next one, COc1ccc(CNc2ncccc2C(=O)O)cc1 ?
Solution: 229 °C

Problem: Same thing, different molecule: O=C(O)Cc1cccc(-c2ccccc2OC2OC(CO)C(O)C(O)C2O)c1 (stereo not given)
Solution: 85 to 86 °C

Problem: Another: COc1ccccc1-n1c(=O)[nH]c2c(C(N)=O)nc(N[C@H]3CC[C@H](O)CC3)nc21
Solution: 165 to 167 °C

---

Parameter melting point: see the listing below.

CCOC(=O)c1cc(CBr)ccc1S(=O)(=O)NC(=O)Nc1nc(OC)cc(OC)n1 :: 195 to 197 °C

Problem: Reported melting point for COc1cc(Cc2cnc(N)nc2N)c2ccccc2c1OC : what is it?
Solution: 228 to 230 °C

Problem: # iterate: NC(=O)/C=C1/c2cc(F)ccc2CC1O[N+](=O)[O-] (stereo not given)
Solution: 162 to 163 °C

Problem: Repeat for the following compound: O=C(OC(=O)c1ccc([N+](=O)[O-])cc1S(=O)(=O)O)c1ccc([N+](=O)[O-])cc1S(=O)(=O)O
Solution: 110 to 116 °C

Problem: Then CCOC(=O)c1cc2c(OCC(O)CNC(C)(C)C)cc(C)cc2[nH]1 (stereo not given) ?
Solution: 181 to 183 °C

---

This listing pairs compounds with measured melting point.

COc1cc([C@H]2C(C#N)=C(N)Oc3c2ccc(NC(=O)CN(C)C(=O)OC2c4ccccc4-c4ccccc42)c3N)cc(Br)c1OC :: 128 to 130 °C
COC(=O)c1cccnc1CN1C(=O)C(NC(=O)Nc2cccc(C)c2)N=C(c2ccccc2F)c2ccccc21 (racemic) :: 171 to 175 °C
Cn1c(C#N)ccc1-c1ccc2c(c1)C(C)(C)OC(=S)N2 :: 228 to 229 °C
COC(=O)[C@@]12CO[C@@H](C(C)(C)C)N1C(=O)[C@@H](C)C2 :: 107 to 108 °C
O=c1[nH]ncc(Cl)c1NCCCN1CCC(c2noc3cc(F)ccc23)CC1 :: 198 to 200 °C
Cc1c(C)c(N2CCN(c3ccc(CN)cc3)CC2)c(C)c2c1OC(C)(C)C2 :: 156 to 158 °C
COC(=O)C1CN(C(=O)OC(C)(C)C)CCN1C(=O)/C=C/c1ccc(Sc2ccc3c(c2)OCCO3)c(C(F)(F)F)c1 (stereo not given) :: 85 to 87 °C
C[C@H](Nc1nc(NC=O)nc([C@@H](C)F)n1)C1CCCCC1 :: 127 °C

Problem: What measured melting point goes with COCCNC(=O)C1CCC(Nc2ncc3ncnc(Nc4ccc(F)c(Cl)c4)c3n2)CC1 (stereo not given) ?
Solution: 243 to 246 °C

Problem: Repeat for the following compound: CCn1c2ccccc2c(=NN=C2NCCS2)c2ccccc21
Solution: 187 to 188 °C

Problem: Now this one: CC(C)c1cc(C(=O)Nc2ccc(C(=O)O)s2)oc1C(C)C
Solution: 227 to 228 °C

Problem: Please do the same for O=C(O)c1ccccc1Oc1ccc(F)cc1 as well.
Solution: 146 to 147 °C

Problem: Lookup Cc1cc(-c2cc(C(F)(F)F)n3cnc(C#N)c3n2)ccc1C(F)(F)F
Solution: 217 °C

Problem: What about COCCNC(=O)Cc1c(-c2ccc(C)cc2)nc2[nH]c3ccccc3n12 ?
Solution: 189 to 190 °C

Problem: Thanks! And CCOC(=O)c1ccc2c(c1)CCC(Cc1cnc(N)s1)C2 (stereo not given) ?
Solution: 150 to 153 °C

Problem: Cool, now CC(=O)C(O)C1OC(n2cc(C#N)c(=O)[nH]c2=O)CC1C(C)=O (stereo not given)
Solution: 160 to 162 °C
